assayed-target: Aryl hydrocarbon receptor (Homo sapiens)
assay-info: ATG_Ahr_CIS: Attagene CIS-FACTORIAL HepG2 Assay for human Aryl Hydrocarbon Receptor (Ahr) (AID 2282930)
condition-set: HepG2 AhR cis-factorial reporter transcription; actives raise or lower the signal
Active and inactive are the calls of the source. The calls were made as follows: active = hit-call score of the fitted dose curve at least 0.9, where 1 is the maximum; inactive = score below 0.9.
Just give me one of these, please: 1 for active, 0 for inactive

[[record]]
compound = "[Cl-].[Cl-].[Hg+2]"
answer_label = 0


# outcome recorded in this test, key = `COC(=O)c1ccccc1N` 1

---

Read-out: Monokine induced gamma interferon (MIG), CXCL9 (gene 4283)
assay-info: BSK_CASM3C_MIG: BioMAP Diversity Plus: CASM3C Assay for Monokine induced gamma interferon (MIG) Biomarker Activity (AID 2283048);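 also: MIG protein level measured by ELISA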
condition-set: primary human coronary artery smooth muscle cells; actives raise or lower the signal
The source made the active and inactive calls. How the source made its calls: active means hit-call score of the fitted dose curve at least 0.9, where 1 is the maximum; inactive means score below 0.9.
Respond only with the outcome that fits, drawn from active, inactive

Record excerpt, results attached:
[[record]]
molecule = "CCCCCCCCCCCCCN1CC(C)OC(C)C1 (stereo not drawn)"
answer_label = "inactive"

[[record]]
molecule = "Cc1cccc(N)c1N"
answer_label = "inactive"

[[record]]
molecule = "OCCCl"
answer_label = "inactive"


Turning now to a further record.
GET /call?item= `Clc1ccc(C(c2ccc(Cl)cc2)C(Cl)Cl)cc1` returns the recorded outcome of this test. inactive

---

assay-info: ATG_CRE_CIS: Attagene CIS-FACTORIAL HepG2 Assay for human cAMP Responsive Element (CRE) binding protein 3 (AID 2282926)
condition-set: HepG2 CRE cis-reporter, Attagene multiplexed mRNA; actives raise or lower the signal
Active and inactive are the calls of the source. The calls were made as follows: active = hit-call score of the fitted dose curve at least 0.9, where 1 is the maximum; inactive = score below 0.9.
value-type: AC50

[[record]]
chemical_structure = "CNC(=O)Oc1cccc2c1OC(C)(C)C2"
value_type = "AC50"
result = "inactive"

[[record]]
chemical_structure = "CCOC(=O)[C@]1(c2ccccc2)Oc2ccccc2[C@@H]1N"
value_type = "AC50"
result = "20.3 µM (active)"

[[record]]
chemical_structure = "CN(C)c1ccccc1"
value_type = "AC50"
result = "inactive"

[[record]]
chemical_structure = "c1ccc(N=Nc2ccccc2)cc1"
value_type = "AC50"
result = "inactive"

[[record]]
chemical_structure = "O=C(Nc1ccccc1)c1ccccc1I"
value_type = "AC50"
result = "inactive"

[[record]]
chemical_structure = "Nc1ccc(N=Nc2ccccc2)cc1"
value_type = "AC50"
result = "inactive"

[[record]]
chemical_structure = "N#CC(Br)(Br)C(N)=O"
value_type = "AC50"
result = "inactive"


Pending molecule:
Item `CCCCCCCCn1sccc1=O` : provide AC50 14.4 µM (active)

---

Read-out: Protein phosphatase 2A (PPP2R4), PTPA (gene 5524)
assay-info: LTEA_HepaRG_PPP2R4: Life Technologies and Expression Analysis (LTEA) Assay for Protein phosphatase 2A (PPP2R4) using HepaRG (AID 2283522)
condition-set: mRNA level, 48 h; actives raise or lower the signal
The source made the active and inactive calls. How the source made its calls: active means hit-call score of the fitted dose curve at least 0.9, where 1 is the maximum; inactive means score below 0.9.
# valid calls are 1 (active), -1 (inactive); nothing else

[[record]]
compound = "Cn1cc(-c2ccccc2)c(=O)c(-c2cccc(C(F)(F)F)c2)c1"
answer_label = -1


Call for entry `Clc1ccc(C(c2ccc(Cl)cc2)C(Cl)(Cl)Cl)cc1` : -1

Dear all, I need the recorded test outcome for `COc1cc(C=O)cc2c1[C@H](COC(N)=O)[C@]1(OC(C)=O)ON2C[C@H]2[C@@H]1N2C(C)=O` , thank you. -1

// param item: `O=C(Nc1ccccc1)c1ccccc1I` ; yields the recorded call -1

How did this test come out for CCOc1cccc(C2(N3CCN(c4ccccc4)CC3)CCC(C)CC2)c1 (stereo not drawn) ? -1

Hi, sorry to bother you, what did the test record for `COC(=O)c1ccccc1N` ? -1

---

Read-out: JUN Transcription Factor, JUN (gene 3725)
assay-info: LTEA_HepaRG_JUN: Life Technologies and Expression Analysis (LTEA) Assay for JUN Transcription Factor using HepaRG (AID 2283513)
condition-set: mRNA level, 48 h; actives raise or lower the signal
Activity calls are given as the source filed them. How the source made its calls: active means hit-call score of the fitted dose curve at least 0.9, where 1 is the maximum; inactive means score below 0.9.
Outcome (select one): active, inactive

Please review the following examples before continuing.
[[record]]
compound = "N#CC(Br)Br"
answer_label = "inactive"

[[record]]
compound = "N#CC(Br)(Br)C(N)=O"
answer_label = "inactive"

[[record]]
compound = "Cc1ccc(N)c(N)c1"
answer_label = "inactive"

[[record]]
compound = "c1ccc(NNc2ccccc2)cc1"
answer_label = "inactive"

[[record]]
compound = "CN(C)c1ccccc1"
answer_label = "inactive"

[[record]]
compound = "CN(C)c1ccc(C(=O)c2ccc(N(C)C)cc2)cc1"
answer_label = "inactive"

[[record]]
compound = "c1ccc(N=Nc2ccccc2)cc1"
answer_label = "inactive"

[[record]]
compound = "[Cl-].[Cl-].[Hg+2]"
answer_label = "inactive"

[[record]]
compound = "Clc1ccc(Cl)c(Cl)c1"
answer_label = "inactive"

[[record]]
compound = "C[N+](C)(C)CC1CO1 (centres undefined)"
answer_label = "inactive"


In this assay, the call recorded for `CCOC(=O)[C@]1(c2ccccc2)Oc2ccccc2[C@@H]1N` was what? active

Recorded test call requested for `c1ccc2c(c1)-c1cccc3cccc-2c13` inactive

// return assay outcome for `Cc1ccc(N=C=O)cc1N=C=O` inactive

Can you look up the reported call for `CO[C@@H]1[C@H](OC(=O)NC(=O)CCl)CC[C@]2(CO2)[C@H]1[C@@]1(C)O[C@@H]1CC=C(C)C` for me? inactive

Outcome logged for `CCCCCCCCn1sccc1=O` in this assay: inactive

Dear colleague, could you share the recorded outcome for `O=C(Nc1ccccc1)c1ccccc1I` when you have a moment? inactive

---

Read-out: ABC Transporter (ABCB11), ABCB11 (gene 8647)
assay-info: LTEA_HepaRG_ABCB11: Life Technologies and Expression Analysis (LTEA) Assay for ABC Transporter (ABCB11) using HepaRG (AID 2283463)
condition-set: mRNA level, 48 h; actives raise or lower the signal
Active and inactive are the calls of the source. The calls were made as follows: active = hit-call score of the fitted dose curve at least 0.9, where 1 is the maximum; inactive = score below 0.9.
Respond only with the outcome that fits, drawn from 1.0 (active), 0.0 (inactive)

The following compounds have reported results that may help.
[[record]]
compound = "c1ccc2c(c1)-c1cccc3cccc-2c13"
answer_label = 0.0

[[record]]
compound = "Nc1ccc(N=Nc2ccccc2)cc1"
answer_label = 1.0

[[record]]
compound = "CC(C)(C)OOC(=O)c1ccccc1"
answer_label = 0.0

[[record]]
compound = "Cc1ccc([N+](=O)[O-])cc1"
answer_label = 0.0

[[record]]
compound = "CCCCCCCCCCCCCN1CC(C)OC(C)C1 (stereo not given)"
answer_label = 0.0


Record request — test call for `O=[N+]([O-])C(Br)(CO)CO` 0.0

Please state the recorded outcome for this compound: `CCN(CC)CCO` 0.0

What was the test verdict on `[Cl-].[Cl-].[Hg+2]` ? 0.0

---

assayed-target: human Esterase Plasma (ES), BCHE (gene 590) (UniProt P06276)
Sequence (P06276 whole entry, looked up): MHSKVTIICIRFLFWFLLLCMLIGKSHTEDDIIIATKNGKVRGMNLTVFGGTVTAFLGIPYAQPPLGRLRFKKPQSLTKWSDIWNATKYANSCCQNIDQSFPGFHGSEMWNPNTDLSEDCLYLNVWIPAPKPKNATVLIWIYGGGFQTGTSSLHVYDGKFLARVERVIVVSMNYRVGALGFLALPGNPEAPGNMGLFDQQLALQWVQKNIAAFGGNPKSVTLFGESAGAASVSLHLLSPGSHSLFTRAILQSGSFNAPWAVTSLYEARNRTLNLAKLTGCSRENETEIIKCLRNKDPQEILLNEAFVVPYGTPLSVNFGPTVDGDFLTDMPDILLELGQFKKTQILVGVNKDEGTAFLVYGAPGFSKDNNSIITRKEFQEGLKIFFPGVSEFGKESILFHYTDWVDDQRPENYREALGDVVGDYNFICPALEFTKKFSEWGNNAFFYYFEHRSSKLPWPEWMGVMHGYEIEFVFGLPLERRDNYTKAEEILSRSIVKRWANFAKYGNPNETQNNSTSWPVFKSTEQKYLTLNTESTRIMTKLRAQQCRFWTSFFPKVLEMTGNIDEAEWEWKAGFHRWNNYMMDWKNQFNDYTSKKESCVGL
assay-info: NVS_ENZ_hES: NovaScreen (NVS) Enzymatic Assay for human Esterase Plasma (ES) (AID 2283157)
Records with an inconclusive call do not appear. Activity calls are given as the source filed them. How the source made its calls: active means hit-call score of the fitted dose curve at least 0.9, where 1 is the maximum; inconclusive means response in the unintended direction; inactive means score below 0.9.
Please reply with one of these outcomes: yes (1) (active), no (0) (inactive)

// known answers, use as guide
[[record]]
compound = "CCOC(=O)[C@]1(c2ccccc2)Oc2ccccc2[C@@H]1N"
answer_label = "yes (1)"

[[record]]
compound = "O=[N+]([O-])C(Br)(CO)CO"
answer_label = "yes (1)"

[[record]]
compound = "O=C(N[C@H](c1ccccc1)[C@@H]1CN2CCC1CC2)c1c(Cl)ccc(C(F)(F)F)c1Cl"
answer_label = "yes (1)"

[[record]]
compound = "[Cl-].[Cl-].[Hg+2]"
answer_label = "yes (1)"

[[record]]
compound = "O=C(Nc1ccccc1)c1ccccc1I"
answer_label = "no (0)"

[[record]]
compound = "CCCCCCCCCCCCCN1CC(C)OC(C)C1 (configuration not stated)"
answer_label = "no (0)"


Let us examine a further case.
Call for entry `c1ccc(NNc2ccccc2)cc1` : yes (1)

---

assay-info: ATG_PPRE_CIS: Attagene CIS-FACTORIAL HepG2 Assay for human Peroxisome Proliferator-activated Response Element (PPRE) (AID 2282958)
condition-set: HepG2 PPRE cis-element reporter, Attagene transcription factor profiling; actives raise or lower the signal
Activity calls are given as the source filed them. The calls were made as follows: active = hit-call score of the fitted dose curve at least 0.9, where 1 is the maximum; inactive = score below 0.9.
Your answer must be one of the following: active, inactive

Sample answers from the record:
[[record]]
compound = "CC(C)(C)C(O)(CCc1ccc(Cl)cc1)Cn1cncn1 (stereo not given)"
answer_label = "inactive"

[[record]]
compound = "CCCCCCCCOC(=O)c1ccc(C(=O)OCCCCCCCC)c(C(=O)OCCCCCCCC)c1"
answer_label = "inactive"

[[record]]
compound = "Nc1ccc(N=Nc2ccccc2)cc1"
answer_label = "active"

[[record]]
compound = "c1ccc(C2CO2)cc1 (stereo not given)"
answer_label = "inactive"

[[record]]
compound = "Nc1ccc(Cc2ccc(N)cc2)cc1"
answer_label = "inactive"

[[record]]
compound = "CN(C)C(=O)Nc1ccc(Cl)cc1"
answer_label = "inactive"

[[record]]
compound = "Clc1ccc(C(c2ccc(Cl)cc2)C(Cl)Cl)cc1"
answer_label = "inactive"

[[record]]
compound = "ClC1=C(Cl)C2(Cl)C3C(Cl)C=CC3C1(Cl)C2(Cl)Cl (stereo not given)"
answer_label = "inactive"


Now examine the next entry.
Outcome logged for `CN(C)[C@@H]1C(=O)C(C(N)=O)=C(O)[C@@]2(O)C(=O)C3=C(O)c4c(O)cccc4[C@@](C)(O)[C@H]3C[C@@H]12` in this assay: inactive
